System: Dicots
Assay: Herbicidal activity, postemergence, dicot weeds (Table II)
Assay type: in vivo
Settings: post-emergence, 336 h, 2 lb./A., about 2 weeks, read-out: % control (percent of plants killed)
Recorded pest or weed control at 2241.7 g/ha for the following compounds
Record the value in %, omitting the unit from your answer.

Previously resolved entries follow.
CC(Oc1cc(Oc2ccc(C(F)(F)F)cc2Cl)ccc1[N+](=O)[O-])C(N)=O (stereo not shown) : 98
C#CC(C)Oc1cc(Oc2ccc(C(F)(F)F)cc2Cl)ccc1[N+](=O)[O-] (stereo not shown) : 100
CC(Oc1cc(Oc2ccc(C(F)(F)F)cc2Cl)ccc1[N+](=O)[O-])C(=O)N(C)C (stereo not shown) : 100

Below: the item to evaluate.
So, CCN(CCO)c1cc(Oc2ccc(C(F)(F)F)cc2Cl)ccc1[N+](=O)[O-] ? Its pest or weed control at 2241.7 g/ha was 100
